The measurements presented in this section are drawn from patent US20150086555A1.

# test target: hemagglutinin (HA) of influenza A/Japan/305/57 (H2N2) on whole virions (Influenza A virus A/Japan/305/1957(H2N2), UniProt P03451 16-562)
# test protocol: ELISA; BCC supernatant on coated inactivated whole virions
result type: ELISA virus binding (OD450)
Just the number in OD450, nothing appended.

Previously resolved entries follow.
TCN-543 (5081_G23) (antibody, V domains shown) VH: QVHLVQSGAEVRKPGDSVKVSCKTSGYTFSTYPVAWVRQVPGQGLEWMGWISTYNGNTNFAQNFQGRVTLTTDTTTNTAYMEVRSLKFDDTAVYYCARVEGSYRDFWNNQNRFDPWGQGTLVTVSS VL: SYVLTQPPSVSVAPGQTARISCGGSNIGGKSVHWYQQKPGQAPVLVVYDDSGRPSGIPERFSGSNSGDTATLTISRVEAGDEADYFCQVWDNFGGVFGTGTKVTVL = 3.62
TCN-530 (5248_H10a) (antibody, V domains shown) VH: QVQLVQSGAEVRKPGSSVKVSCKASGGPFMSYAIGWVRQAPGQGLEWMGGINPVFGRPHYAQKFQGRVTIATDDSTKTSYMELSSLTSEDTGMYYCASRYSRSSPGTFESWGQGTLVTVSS VL: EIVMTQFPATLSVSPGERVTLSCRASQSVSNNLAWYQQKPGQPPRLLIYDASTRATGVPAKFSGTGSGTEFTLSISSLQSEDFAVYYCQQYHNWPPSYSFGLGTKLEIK = 1.73

# ELISA virus binding (OD450) of TCN-526 (5084_C17) (antibody, V domains shown) VH: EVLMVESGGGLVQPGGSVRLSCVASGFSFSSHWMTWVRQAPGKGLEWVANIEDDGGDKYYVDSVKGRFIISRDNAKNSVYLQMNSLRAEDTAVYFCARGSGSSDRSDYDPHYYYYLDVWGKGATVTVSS VL: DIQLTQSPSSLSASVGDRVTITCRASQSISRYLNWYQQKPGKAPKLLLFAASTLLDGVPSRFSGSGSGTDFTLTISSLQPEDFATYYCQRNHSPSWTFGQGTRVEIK = 0.07

Note to self: ELISA virus binding (OD450) recorded for TCN-560 (5084_P10) (antibody, V domains shown) VH: EVQLVESGGGLVQPGGSLRLSCAASGFIFRNYWMSWVRQAPGKGLEWVANIKQDGREKYYVDSLRGRVNISRDNAENSLYLHMNSLRVEDTAVYFCARARMVVVTGDGFDVWGHGTMVTVSS VL: DIQMTQSPSSLSASVGDRVTITCRASQNIKRYFNWYQQKPGKAPKLLIYAASNLENGVPSRFSGSGSGTDFTLTISSLQPEDFATYYCQQSFSKSWTFGQGTNVDIK was 2.07

GET /value?item= TCN-544 (5082_A19) (antibody, V domains shown) VH: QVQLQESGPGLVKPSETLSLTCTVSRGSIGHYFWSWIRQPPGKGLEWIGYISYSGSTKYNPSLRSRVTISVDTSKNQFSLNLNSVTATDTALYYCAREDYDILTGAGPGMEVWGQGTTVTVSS VL: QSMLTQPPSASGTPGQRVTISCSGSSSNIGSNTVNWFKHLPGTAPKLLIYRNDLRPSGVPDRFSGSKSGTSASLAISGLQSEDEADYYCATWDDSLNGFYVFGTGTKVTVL &field=ELISA virus binding (OD450) returns 0.07
